Assay Remarks: Selectivity index, ratio of CC50 for African green monkey CV1 cells to IC50 for Vaccinia virus LIVP harboring GFP infected in African green monkey CV1 cells
Format: toxicity
Particulars: read-out: Ratio CC50/IC50
Reported Endpoint: selectivity ratio

- CN(C)CCCNCCn1c2ccccc2c2nc3ccccc3nc21: 4
- CN(C)CCCNC(=O)Cn1c2ccccc2c2nc3ccccc3nc21: 50
- c1ccc2nc3c(nc2c1)c1ccccc1n3CCNCCCN1CCOCC1: 4
- COc1ccc2c(c1)c1nc3ccccc3nc1n2CCN1CCCCC1: 34

* * *

Species: Bos taurus
Assay Remarks: Displacement of ethidium bromide from calf thymus DNA by fluorescence binding assay
Below, each of the compounds is paired with its reported log Ka value.
Reported Endpoint: log Ka

* CN(C)CCCCn1c2ccccc2c2nc3ccccc3nc21 | 5.61
* CCN(CC)CCCNC(=O)c1cc2c(ccc3ccccc32)o1 | 6.12
* c1ccc2nc3c(nc2c1)c1ccccc1n3CCCCCCN1CCCCC1 | 5.95
* O=C(CCCn1c2ccccc2c2nc3ccccc3nc21)NCCNCCO | 5.05
* CC1CCN(CC(=O)N/N=C2\C(=O)Nc3ccccc32)CC1 | 5.4
* O=C(NCCCN1CCOCC1)c1cc2c(ccc3ccccc32)o1 | 5.64
* CN(C)CCCn1c2ccccc2c2nc3ccccc3nc21 | 6.01
* CCN(CC)CCN1C(=O)/C(=N\NC(=O)CN2CCOCC2)c2ccccc21 | 6.21
* O=C(CCCn1c2ccccc2c2nc3ccccc3nc21)NCCN1CCOCC1 | 4.91
* O=C(CN1CCCC1)N/N=C1\C(=O)Nc2ccccc21 | 5.58
* CC1CCCCN1CCCCn1c2ccccc2c2nc3ccccc3nc21 (stereo unspecified) | 5.6

Origin of measurements: ChEMBL document CHEMBL4052722
